- assayed-target: non-cleavable transmembrane form of human TNF-alpha on CHO cells (mTNF-alpha-CHO) (human, UniProt P01375 1-233)
- Sequence (P01375 whole entry): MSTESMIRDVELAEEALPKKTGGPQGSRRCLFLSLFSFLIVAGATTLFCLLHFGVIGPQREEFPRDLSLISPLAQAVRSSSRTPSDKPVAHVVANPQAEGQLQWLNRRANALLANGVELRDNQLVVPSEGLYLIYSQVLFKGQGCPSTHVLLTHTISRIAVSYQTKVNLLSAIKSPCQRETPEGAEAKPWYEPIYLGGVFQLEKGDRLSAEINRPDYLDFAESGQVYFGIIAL
- assay-protocol: cell-based or functional assay
# mTNF-alpha neutralisation EC50 (nM), NF-kB/SEAP HEK-293 cellular reporter assay values compiled below
metric: mTNF-alpha neutralisation EC50 (nM), NF-kB/SEAP HEK-293 cellular reporter assay

| binder | reading |
| --- | --- |
| ID34F (VHH) VHH: EVQLVESGGGLVQPGGSLKLSCAASGFDFSSHWMYWVRQAPGKELEWLSEINTNGLITHYGDSVKGRFTVSRNNAANKMYLELTRLEPEDTALYYCARNQHGLNKGQGTQVTVSS | 4.71 |
| Q65B1 (VHH, not shown: small tags and cut ends, Family 1; purified from E. coli; parent of the ID series) VHH: EVQLVESGGGLVQPGGSLKLSCAASGFDFSSHWMYWVRQAPGKELEWLSEINTNGLITKYGDSVKGRFTVSRNNAANKMYLELTRLEPEDTALYYCARNQKGLNKGQGTQVTVSS | 8.72 |
| ID8F-EV (VHH, not shown: small tags and cut ends) VHH: EVQLVESGGGLVQPGGSLKLSCAASGFDFSSHWMYWVRQAPGKELEWLSEINTNGLITHYGDSVKGRFTVSRNNAANKMYLELTRLEPEDTALYYCARNQKGLNKGQGTQVTVSS | 7.69 |
| ID38F (VHH, Q65B1 with N-terminal DVQLV, K59H and K101H; no His-tag; also called ID38F (S. cerevisiae-produced)) VHH: DVQLVESGGGLVQPGGSLKLSCAASGFDFSSHWMYWVRQAPGKELEWLSEINTNGLITHYGDSVKGRFTVSRNNAANKMYLELTRLEPEDTALYYCARNQHGLNKGQGTQVTVSS | 5.16 |
